Assay: in vitro
Details: human, Caco-2
PROPERTY_LABEL: Papp B→A at 2 h

| SMILES_STR | EXPERIMENTAL_VALUE |
| --- | --- |
| Cc1cn2c(C(=O)NCc3ccc(S(F)(F)(F)(F)F)cc3)c(C)nc2s1 | 8.1 ×10⁻⁶ cm/s |
| CCc1nc2ccc(Cl)cn2c1C(=O)NCc1cccc(S(F)(F)(F)(F)F)c1 | 5.61 ×10⁻⁶ cm/s |

* * *

Listing of entries alongside the reported pIC50.
Molecular target: CYP2C19 (Homo sapiens)
Sequence (P33261 whole entry): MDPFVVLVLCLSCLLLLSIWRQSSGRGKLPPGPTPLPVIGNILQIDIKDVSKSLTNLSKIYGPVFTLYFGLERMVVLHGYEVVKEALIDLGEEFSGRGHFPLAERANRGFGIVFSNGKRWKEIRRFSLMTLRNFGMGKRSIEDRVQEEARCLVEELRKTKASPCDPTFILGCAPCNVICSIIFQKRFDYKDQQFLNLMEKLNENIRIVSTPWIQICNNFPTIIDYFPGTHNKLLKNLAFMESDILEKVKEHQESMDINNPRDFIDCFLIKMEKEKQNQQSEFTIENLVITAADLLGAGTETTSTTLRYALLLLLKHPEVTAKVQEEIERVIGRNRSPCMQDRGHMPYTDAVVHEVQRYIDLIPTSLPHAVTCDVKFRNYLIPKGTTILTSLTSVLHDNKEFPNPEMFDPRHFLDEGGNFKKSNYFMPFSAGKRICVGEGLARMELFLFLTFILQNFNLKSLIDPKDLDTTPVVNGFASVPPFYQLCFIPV
pIC50: −log10 of the molar value.
PROPERTY_LABEL: pIC50

| COMPOUND | EXPERIMENTAL_VALUE |
| --- | --- |
| CCc1nc2ccc(Cl)cn2c1C(=O)NCc1cccc(S(F)(F)(F)(F)F)c1 [Compound 18] | 4.97 |
| Cc1cn2c(C(=O)NCc3ccc(S(F)(F)(F)(F)F)cc3)c(C)nc2s1 [Compound 19] | 4.87 |

Hello, the source for this data is paper PMC5603227, in case you need it.
